measured.on: ß1 (Homo sapiens)
Sequence (P08588 whole entry): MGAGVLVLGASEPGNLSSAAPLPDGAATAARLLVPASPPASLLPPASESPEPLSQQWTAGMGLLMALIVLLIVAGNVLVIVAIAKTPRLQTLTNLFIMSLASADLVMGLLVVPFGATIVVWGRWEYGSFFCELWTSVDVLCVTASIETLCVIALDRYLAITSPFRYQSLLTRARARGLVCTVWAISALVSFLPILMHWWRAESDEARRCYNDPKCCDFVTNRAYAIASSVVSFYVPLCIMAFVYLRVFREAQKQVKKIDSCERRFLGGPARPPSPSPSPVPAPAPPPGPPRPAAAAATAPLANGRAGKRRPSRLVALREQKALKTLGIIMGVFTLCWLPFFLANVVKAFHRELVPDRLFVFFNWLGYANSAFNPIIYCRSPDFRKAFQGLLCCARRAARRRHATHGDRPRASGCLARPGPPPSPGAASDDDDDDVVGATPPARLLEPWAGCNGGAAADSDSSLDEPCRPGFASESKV
assay.text: Block of ligand binding to β-adrenergic receptor, ß1
measurement.setup: read-out: Concentration (nM) To Block Binding of Ligand by 50% ß1
Criterion: IC50 strictly less than 800 nM. Met: Y. Not met: N.

Q. Strictly below 800 nM: is that where IC50 of CCc1nc(N2CCNCC2)c2sccc2n1 [R^1 = -C2H5, R^2 = H (the 2nd table r0 drawing)] sits?
A. Y

Q. Check if IC50 falls below 800 nM for Cc1nc2c(c(N3CCNCC3)n1)SCCC2 [R^1 = -CH3, R^2 = H (the 1st table r1 drawing)] .
A. Y

Q. I'd appreciate it if you could check whether CCc1nc(N2CCN(C)CC2)c2sccc2n1 has IC50 smaller than 800 nM.
A. N

Q. Say whether its IC50 is strictly beneath 800 nM. Entry: CCCCc1nc2c(c(N3CCN(C)CC3)n1)SCCC2
A. N
